Test Target: recombinant CYP-21 (Homo sapiens, UniProt P08686)
Sequence (P08686 whole entry, species assumed): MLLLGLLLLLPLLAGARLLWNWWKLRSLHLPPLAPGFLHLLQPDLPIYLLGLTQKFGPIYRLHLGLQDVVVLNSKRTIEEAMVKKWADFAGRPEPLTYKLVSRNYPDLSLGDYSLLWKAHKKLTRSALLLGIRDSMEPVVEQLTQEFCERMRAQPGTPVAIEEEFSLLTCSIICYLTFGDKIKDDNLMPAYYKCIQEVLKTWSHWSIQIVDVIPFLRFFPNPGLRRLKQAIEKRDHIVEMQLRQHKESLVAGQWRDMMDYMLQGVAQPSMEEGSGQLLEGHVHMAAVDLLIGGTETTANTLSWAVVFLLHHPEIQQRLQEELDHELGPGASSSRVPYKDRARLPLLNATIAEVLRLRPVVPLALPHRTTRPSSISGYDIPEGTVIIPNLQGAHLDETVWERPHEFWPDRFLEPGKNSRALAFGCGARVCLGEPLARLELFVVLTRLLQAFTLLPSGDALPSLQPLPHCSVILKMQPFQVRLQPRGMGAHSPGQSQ
Assay Summary: Cyp21 assay: AD293 cells over-expressing recombinant CYP-21, 11-deoxycortisol formation from 17α-OH Progesterone by LC/MS
Details: eight concentrations 10 μM to 4.5 nM
Measured Endpoint: IC50 (µM)

Clc1ccc([C@]2(Cn3ccnc3)OC[C@@H](COc3ccc(N4CCN(C5=NCCO5)CC4)cc3)O2)c(Cl)c1 (racemic) : 0.423
COC(=O)[C@@H](NC(=O)N1CCN(c2ccc(OC[C@H]3CO[C@](Cn4ccnc4)(c4ccc(Cl)cc4Cl)O3)cc2)CC1)C(C)C : 0.72
CCOC(=O)CNC(=O)N1CCN(c2ccc(OC[C@H]3CO[C@](Cn4ccnc4)(c4ccc(Cl)cc4Cl)O3)cc2)CC1 : 2.46
O=S(=O)(CCC(F)(F)F)N1CCN(c2ccc(OC[C@@H]3CO[C@@](Cn4ccnc4)(c4ccc(Cl)cc4Cl)O3)cc2)CC1 : 0.373

P. N=C(N)N1CCN(c2ccc(OC[C@@H]3CO[C@@](Cn4ccnc4)(c4ccc(Cl)cc4Cl)O3)cc2)CC1
Q. CC(C)CS(=O)(=O)N1CCN(c2ccc(OC[C@@H]3CO[C@@](Cn4ccnc4)(c4ccc(Cl)cc4Cl)O3)cc2)CC1
Q: When the recorded IC50 values are compared, which is smaller: that of P or that of Q ? Output the label that corresponds to your choice.
Result: Q

---

Test Target: recombinant CYP-11 (Homo sapiens)
Assay Summary: Cyp11 assay: AD293 cells over-expressing recombinant CYP-11, cortisol formation from 11-deoxycortisol by LC/MS
Details: eight concentrations 10 μM to 4.5 nM
Measured Endpoint: IC50 (nM)

CN(C)C(=O)N1CCN(c2ccc(OC[C@@H]3CO[C@@](Cn4ccnc4)(c4ccc(Cl)cc4Cl)O3)cc2)CC1 (racemic) : 100

a. COCCOC(=O)N1CCN(c2ccc(OC[C@@H]3CO[C@@](Cn4ccnc4)(c4ccc(Cl)cc4Cl)O3)cc2)CC1 (racemic)
b. COC(=O)[C@H](Cc1ccccc1)NC(=O)N1CCN(c2ccc(OC[C@H]3CO[C@](Cn4ccnc4)(c4ccc(Cl)cc4Cl)O3)cc2)CC1
Q: Of a and b , whose reported IC50 is numerically smaller? Reply briefly: the label of your chosen item.
Result: a

---

Test Target: recombinant CYP-17 (Homo sapiens)
Construct: expressed in transfected cells
Sequence (P05093 whole entry, species assumed): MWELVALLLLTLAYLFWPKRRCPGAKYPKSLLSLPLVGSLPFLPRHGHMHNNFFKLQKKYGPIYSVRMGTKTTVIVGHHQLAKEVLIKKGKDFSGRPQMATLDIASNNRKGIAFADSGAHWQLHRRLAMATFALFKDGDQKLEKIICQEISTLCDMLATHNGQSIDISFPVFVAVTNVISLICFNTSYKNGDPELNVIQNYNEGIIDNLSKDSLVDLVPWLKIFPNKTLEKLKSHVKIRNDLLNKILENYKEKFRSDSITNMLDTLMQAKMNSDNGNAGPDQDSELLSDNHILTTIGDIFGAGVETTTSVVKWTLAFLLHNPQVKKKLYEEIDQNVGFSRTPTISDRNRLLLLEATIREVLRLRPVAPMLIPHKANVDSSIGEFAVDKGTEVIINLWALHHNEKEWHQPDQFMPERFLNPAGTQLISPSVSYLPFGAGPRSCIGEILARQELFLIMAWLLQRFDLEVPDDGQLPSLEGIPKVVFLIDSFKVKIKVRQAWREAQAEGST
Assay Summary: Cyp17 assay: AD293 cells over-expressing recombinant CYP-17, 3H-acetic acid release from [21-3H] 17α-hydroxyl-Pregnenolone
Format: cell-based
Details: AD293 cells, eight concentrations 10 μM to 4.5 nM
Description: Cyp17 assay protocol: AD293 cells that stably over-express recombinant CYP-17 were seeded in 96 well plates coated with poly D-lysine (15,000 cell per well) and incubated at 37° C. for 24 hours in Dulbecco's Modified Eagle Medium (DMEM) with Fetal Bovine Serum (FBS) that is stripped of hormones by charcoal treatment. […] The aqueous layer is then separated and analyzed for the presence of ^3H-acetic acid using a Perkin Elmer Topcount NXT to determine IC50s of the compounds of the disclosure.
Measured Endpoint: IC50 (nM)

// below: answered molecules
COC(=O)[C@H](Cc1ccccc1)NC(=O)N1CCN(c2ccc(OC[C@@H]3CO[C@@](Cn4ccnc4)(c4ccc(Cl)cc4Cl)O3)cc2)CC1 : 43
COCCOC(=O)N1CCN(c2ccc(OC[C@@H]3CO[C@@](Cn4ccnc4)(c4ccc(Cl)cc4Cl)O3)cc2)CC1 (racemic) : 100
CC(C)CS(=O)(=O)N1CCN(c2ccc(OC[C@@H]3CO[C@@](Cn4ccnc4)(c4ccc(Cl)cc4Cl)O3)cc2)CC1 : 45

A. COC(=O)[C@H](Cc1ccccc1)NC(=O)N1CCN(c2ccc(OC[C@H]3CO[C@](Cn4ccnc4)(c4ccc(Cl)cc4Cl)O3)cc2)CC1
B. CCCS(=O)(=O)N1CCN(c2ccc(OC[C@@H]3CO[C@@](Cn4ccnc4)(c4ccc(Cl)cc4Cl)O3)cc2)CC1
C. CN(C)C(=O)N1CCN(c2ccc(OC[C@@H]3CO[C@@](Cn4ccnc4)(c4ccc(Cl)cc4Cl)O3)cc2)CC1 (racemic)
D. CCNC(=O)N1CCN(c2ccc(OC[C@H]3CO[C@](Cn4ccnc4)(c4ccc(Cl)cc4Cl)O3)cc2)CC1
Q: Hey, quick one: sort these by IC50, largest value first please. Give me the labels in the order the question wants.
Result: A, C, D, B
(A: 250 nM, C: 100 nM, D: 43 nM, B: 8 nM)

---

Test Target: recombinant CYP-11 (Homo sapiens)
Sequence (P15538 25-503): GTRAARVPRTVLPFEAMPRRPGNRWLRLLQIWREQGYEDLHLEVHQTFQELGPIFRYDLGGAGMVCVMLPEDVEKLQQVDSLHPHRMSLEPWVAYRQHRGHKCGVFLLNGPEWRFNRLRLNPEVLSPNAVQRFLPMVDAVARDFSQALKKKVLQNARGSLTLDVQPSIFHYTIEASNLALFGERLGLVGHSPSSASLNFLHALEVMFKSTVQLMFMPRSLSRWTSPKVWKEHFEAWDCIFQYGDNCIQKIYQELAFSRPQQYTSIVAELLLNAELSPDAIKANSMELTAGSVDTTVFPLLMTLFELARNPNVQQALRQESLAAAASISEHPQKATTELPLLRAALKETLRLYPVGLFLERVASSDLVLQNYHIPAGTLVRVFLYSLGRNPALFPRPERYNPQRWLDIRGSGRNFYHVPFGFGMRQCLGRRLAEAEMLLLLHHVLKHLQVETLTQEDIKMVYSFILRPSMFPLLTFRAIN
Assay Summary: Cyp11 assay: AD293 cells over-expressing recombinant CYP-11, cortisol formation from 11-deoxycortisol by LC/MS
Details: eight concentrations 10 μM to 4.5 nM
Measured Endpoint: IC50 (nM)

Before answering, review these 2 worked examples.
CCCS(=O)(=O)N1CCN(c2ccc(OC[C@@H]3CO[C@@](Cn4ccnc4)(c4ccc(Cl)cc4Cl)O3)cc2)CC1 : 91
N=C(N)N1CCN(c2ccc(OC[C@@H]3CO[C@@](Cn4ccnc4)(c4ccc(Cl)cc4Cl)O3)cc2)CC1 : 1900

A. CC(C)CS(=O)(=O)N1CCN(c2ccc(OC[C@@H]3CO[C@@](Cn4ccnc4)(c4ccc(Cl)cc4Cl)O3)cc2)CC1
B. COC(=O)N1CCN(c2ccc(OC[C@@H]3CO[C@@](Cn4ccnc4)(c4ccc(Cl)cc4Cl)O3)cc2)CC1 (racemic)
Q: Which value of IC50 is numerically greater: that of A or that of B ? // caller expects the label of the chosen entry
Result: A

---

Test Target: recombinant CYP-11 (Homo sapiens, UniProt P15538)
Construct: expressed in transfected cells
Assay Summary: Cyp11 assay: AD293 cells over-expressing recombinant CYP-11, cortisol formation from 11-deoxycortisol by LC/MS
Format: cell-based
Details: eight concentrations 10 μM to 4.5 nM
pIC50: −log10 of the molar value.
Measured Endpoint: pIC50

a. O=S(=O)(CC(F)(F)F)N1CCN(c2ccc(OC[C@@H]3CO[C@@](Cn4ccnc4)(c4ccc(Cl)cc4Cl)O3)cc2)CC1
b. CCNC(=O)N1CCN(c2ccc(OC[C@H]3CO[C@](Cn4ccnc4)(c4ccc(Cl)cc4Cl)O3)cc2)CC1
Q: When their pIC50 values are compared, which is larger, a or b ? Lab log: write the label of the selected item as the result.
Result: a
(a: 7.15, b: 6.30)

a. CCOC(=O)CNC(=O)N1CCN(c2ccc(OC[C@@H]3CO[C@@](Cn4ccnc4)(c4ccc(Cl)cc4Cl)O3)cc2)CC1
b. COC(=O)[C@@H](NC(=O)N1CCN(c2ccc(OC[C@H]3CO[C@](Cn4ccnc4)(c4ccc(Cl)cc4Cl)O3)cc2)CC1)C(C)C
c. O=S(=O)(CC(F)F)N1CCN(c2ccc(OC[C@@H]3CO[C@@](Cn4ccnc4)(c4ccc(Cl)cc4Cl)O3)cc2)CC1
d. CCOC(=O)CNC(=O)N1CCN(c2ccc(OC[C@H]3CO[C@](Cn4ccnc4)(c4ccc(Cl)cc4Cl)O3)cc2)CC1
Q: Hey, can you sort those compounds up there by pIC50, smallest first? Form field (ranking): labels in requested order.
Result: d, c, b, a

---

Test Target: recombinant CYP-21 (Homo sapiens, UniProt P08686)
Construct: expressed in transfected cells
Assay Summary: Cyp21 assay: AD293 cells over-expressing recombinant CYP-21, 11-deoxycortisol formation from 17α-OH Progesterone by LC/MS
Type: cell-based
Details: eight concentrations 10 μM to 4.5 nM
Measured Endpoint: IC50 (nM)

The following compounds have reported results that may help.
CCNC(=O)N1CCN(c2ccc(OC[C@@H]3CO[C@@](Cn4ccnc4)(c4ccc(Cl)cc4Cl)O3)cc2)CC1 : 690
O=S(=O)(CC(F)F)N1CCN(c2ccc(OC[C@@H]3CO[C@@](Cn4ccnc4)(c4ccc(Cl)cc4Cl)O3)cc2)CC1 : 80
COC(=O)[C@@H](NC(=O)N1CCN(c2ccc(OC[C@@H]3CO[C@@](Cn4ccnc4)(c4ccc(Cl)cc4Cl)O3)cc2)CC1)C(C)C : 244

P. CCOC(=O)CNC(=O)N1CCN(c2ccc(OC[C@@H]3CO[C@@](Cn4ccnc4)(c4ccc(Cl)cc4Cl)O3)cc2)CC1
Q. COC(=O)[C@H](Cc1ccccc1)NC(=O)N1CCN(c2ccc(OC[C@@H]3CO[C@@](Cn4ccnc4)(c4ccc(Cl)cc4Cl)O3)cc2)CC1
R. COCCOC(=O)N1CCN(c2ccc(OC[C@@H]3CO[C@@](Cn4ccnc4)(c4ccc(Cl)cc4Cl)O3)cc2)CC1 (racemic)
Q: Could you please order the items by IC50, going from the lowest number to the highest? Reply with the labels, ordered as the question asks.
Result: R, Q, P
(R: 230 nM, Q: 360 nM, P: 710 nM)
